# Test system: K562
# protocolNotes: NCI tumour cell line growth inhibition, 48 h
Active and inactive are the calls of the source. Rule as the data show it: active = GI50 up to about 1.1 µM and inactive = higher.
Response enum: active, inactive

Asked: For CC(=O)Nc1ccc2[nH]c(C(=O)N3CC(CCl)c4c3cc([N+](=O)[O-])c3ccccc43)cc2c1 (stereo not given) , which call appears in the assay record?
Given back: active

Asked: For CCCCOCc1cc(CN2CCN(C)CC2)c(O)c2ncccc12 , which call appears in the assay record?
Given back: inactive

Asked: For C(/C=N/c1ccccc1)=C(/Nc1ccccc1)c1ccc2ccccc2c1 , which call appears in the assay record?
Given back: active

Asked: For Cc1nc(O)nc(N/N=C/c2ccc(Cl)c(Cl)c2)c1C(=O)Nc1ccc(Cl)c(Cl)c1 , which call appears in the assay record?
Given back: inactive

Asked: For Cc1ccc(NC(=O)c2cc(S(=O)(=O)N3CCNNC3=O)c(S)cc2Cl)cc1 , which call appears in the assay record?
Given back: inactive

Asked: For N#Cc1ccc(/C=C(/C(=O)c2ccccc2)c2ccccc2)cc1 , which call appears in the assay record?
Given back: inactive

Asked: For CN(C)CCCC1c2ccccc2Oc2ccc(C(F)(F)F)cc21 (stereo not given) , which call appears in the assay record?
Given back: inactive

Asked: For O=S(=O)(O)c1ccc2c(/N=N/c3ccccc3)c(O)c(S(=O)(=O)O)cc2c1 , which call appears in the assay record?
Given back: inactive

Asked: For COc1ccc(CNC(=O)NCn2cc(-c3ccccc3)nn2)cc1 , which call appears in the assay record?
Given back: inactive

Asked: For COc1cc2cc3c4c(cc(OC)c(OC)c4c2cc1OC)CCN3C , which call appears in the assay record?
Given back: inactive
